Source of measurements: a collection of fitness landscapes (doi:10.1016/j.celrep.2020.107928)

B1: Caulobacter ParB omega fusion; a variant is named by its letters at X, in order, B8GW30 (parent)
chain: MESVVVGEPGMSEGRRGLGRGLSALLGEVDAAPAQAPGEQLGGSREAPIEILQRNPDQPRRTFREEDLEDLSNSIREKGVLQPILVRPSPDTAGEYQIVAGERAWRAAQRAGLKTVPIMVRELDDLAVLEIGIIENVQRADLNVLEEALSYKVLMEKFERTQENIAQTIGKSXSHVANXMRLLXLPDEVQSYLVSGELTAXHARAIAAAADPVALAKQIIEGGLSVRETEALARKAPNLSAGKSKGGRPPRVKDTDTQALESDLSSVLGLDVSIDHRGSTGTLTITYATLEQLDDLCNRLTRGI

- Variants of: B1
- ASSAY_COMMENT: one-hybrid fitness for binding parS DNA (scaled: cognate 1, non-cognate 0); higher = stronger binding
- PROTOCOL_CONDITIONS: with parS DNA site
Whole data set: some 81,000 sequences, median “one-hybrid fitness for binding parS DNA” near -0.17, cut for the highest 2% near 0.51. For the sample, the highest values were picked, then their nearest neighbours and some sequences at random.
TEST_READOUT: one-hybrid fitness for binding parS DNA

Briefly, one-hybrid fitness for binding parS DNA measured for `CVDQ` : ≤ 0.2

Briefly, one-hybrid fitness for binding parS DNA measured for `RLWN` : 0.443

Briefly, one-hybrid fitness for binding parS DNA measured for `QCLV` : ≤ 0.2

Briefly, one-hybrid fitness for binding parS DNA measured for `PMSC` : ≤ 0.2

Briefly, one-hybrid fitness for binding parS DNA measured for `CLSL` : ≤ 0.2

Briefly, one-hybrid fitness for binding parS DNA measured for `HWLK` : ≤ 0.2

Briefly, one-hybrid fitness for binding parS DNA measured for `SSLC` : ≤ 0.2

Briefly, one-hybrid fitness for binding parS DNA measured for `RLWD` : ≤ 0.2

Briefly, one-hybrid fitness for binding parS DNA measured for `RLGS` : 0.981

Briefly, one-hybrid fitness for binding parS DNA measured for `RQEH` : 0.281

Briefly, one-hybrid fitness for binding parS DNA measured for `RGVN` : ≤ 0.2

Briefly, one-hybrid fitness for binding parS DNA measured for `KIKY` : ≤ 0.2

Briefly, one-hybrid fitness for binding parS DNA measured for `RMKV` : ≤ 0.2

Briefly, one-hybrid fitness for binding parS DNA measured for `CSLA` : ≤ 0.2

Briefly, one-hybrid fitness for binding parS DNA measured for `PHSN` : ≤ 0.2

Briefly, one-hybrid fitness for binding parS DNA measured for `RLYD` : ≤ 0.2

Briefly, one-hybrid fitness for binding parS DNA measured for `RIIY` : 0.398

Briefly, one-hybrid fitness for binding parS DNA measured for `PLAI` : ≤ 0.2

Briefly, one-hybrid fitness for binding parS DNA measured for `VAHC` : ≤ 0.2

Briefly, one-hybrid fitness for binding parS DNA measured for `RQER` : ≤ 0.2
